test: MTT cytotoxicity assay, MDCK; type: cell-based, canine; details: dog, MDCK cells

# Compound, IC50 at 4 days
rows = [
    ("COc1cc2cc(-c3cccc(C(C)(C)C)c3)nc(CCN)c2cc1OC [Compound 17a]", "2.2 to 3.5 µM"),
    ("COc1cc2cc(-c3cccc(-c4ccccc4)c3)nc(N=C(N)N)c2cc1OC [Compound 10a]", "2.2 to 3.5 µM"),
]

----------
# IC50 at 4 days per record follows
assay: MTT cytotoxicity assay, HEK293; assay type: cell-based, human; conditions: human, HEK293 cells
Property: IC50 at 4 days

# Molecule, Property, Result value
rows = [
    ("COc1cc2cc(-c3cccc(-c4ccccc4)c3)nc(N=C(N)N)c2cc1OC [Compound 10a]", "IC50 at 4 days", "2.2 to 3.5 µM"),
    ("COc1cc2cc(-c3cccc(C(C)(C)C)c3)nc(CCN)c2cc1OC [Compound 17a]", "IC50 at 4 days", "2.2 to 3.5 µM"),
]
